Tested on: field corn (Zea mays L., var. Dekalb 535, CORN)
Test: Pre-emerge test, crop safety
Assay type: in vivo
Details: 250 g ai/ha; rated 14 days after application; 0 = no damage, 100 = complete death
measurement kind: Pre-emerge phytotoxicity rating (0-100), crop damage, CORN

Consider the worked cases shown below.
COc1c(Cl)cc(F)c(-n2c(=O)cc(C(F)(F)F)n(C)c2=O)c1NC(=O)c1cc([N+](=O)[O-])cc([N+](=O)[O-])c1 : 0
COc1c(Cl)cc(F)c(-n2c(=O)cc(C(F)(F)F)n(C)c2=O)c1NC(=O)c1ccc(OC(F)(F)F)cc1 : 5
COc1c(Cl)cc(F)c(-n2c(=O)cc(C(F)(F)F)n(C)c2=O)c1NC(=O)COc1ccccc1 : 90

# next molecule below
(Q) Recorded Pre-emerge phytotoxicity rating (0-100), crop damage, CORN of COc1c(Cl)cc(F)c(-n2c(=O)cc(C(F)(F)F)n(C)c2=O)c1NC(=O)c1cccnc1 , please.
(A) 90

----------
Each entry below carries its recorded phytotoxicity rating RICE (crop damage).
Test system: upland rice (Oryza sp., var. Tebonnet, RICE)
Assay: Post-emerge test, crop safety
Format: in vivo
Details: post-emerge, 63 g ai/ha, 14 days after application, rating scale 0-100
Form field (numeric): enter value without unit.

COc1c(Cl)cc(F)c(-n2c(=O)cc(C(F)(F)F)n(C)c2=O)c1NC(=O)OCc1c(Cl)cccc1Cl [4-24] : 20
COc1c(Cl)cc(F)c(-n2c(=O)cc(C(F)(F)F)n(C)c2=O)c1NC(=O)OCc1ccc(OC(F)(F)F)cc1 [4-45] : 10
COc1c(Cl)cc(F)c(-n2c(=O)cc(C(F)(F)F)n(C)c2=O)c1NC(=O)Nc1ccccc1 [Compound 3-4] : 0
COc1c(Cl)cc(F)c(-n2c(=O)cc(C(F)(F)F)n(C)c2=O)c1NC(=O)OCc1ccc2ccccc2c1 [4-28] : 10
COc1c(Cl)cc(F)c(-n2c(=O)cc(C(F)(F)F)n(C)c2=O)c1NC(=O)C1CC1 [2-206] : 0

(Q) Param readout= phytotoxicity rating RICE (crop damage); system= upland rice (Oryza sp., var. Tebonnet, RICE); entry= Cn1c(C(F)(F)F)cc(=O)n(-c2ccc(Cl)cc2NC(=O)C2CC2)c1=O [2-204] ; returns value.
(A) 0

(Q) Short answer please: phytotoxicity rating RICE (crop damage), upland rice (Oryza sp., var. Tebonnet, RICE), entry COc1c(Cl)cc(F)c(-n2c(=O)cc(C(F)(F)F)n(C)c2=O)c1NC(=O)OCc1ccc2c(c1)OCO2 [4-41]
(A) 50

(Q) Please tell me: phytotoxicity rating RICE (crop damage) of COc1c(Cl)cc(F)c(-n2c(=O)cc(C(F)(F)F)n(C)c2=O)c1NC(=O)OCc1ccc(F)cc1 [4-7] , system upland rice (Oryza sp., var. Tebonnet, RICE)?
(A) 65

(Q) Notebook: pull reported phytotoxicity rating RICE (crop damage) for upland rice (Oryza sp., var. Tebonnet, RICE), entry Cc1ccc(OC(=O)Nc2c(C)c(Cl)cc(F)c2-n2c(=O)cc(C(F)(F)F)n(C)c2=O)cc1C [4-53]
(A) 30

(Q) Item COc1c(Cl)cc(F)c(-n2c(=O)cc(C(F)(F)F)n(C)c2=O)c1NC(=O)Oc1ccccc1C(C)(C)C [4-27] with upland rice (Oryza sp., var. Tebonnet, RICE) - phytotoxicity rating RICE (crop damage)?
(A) 0

(Q) Write down the reported phytotoxicity rating RICE (crop damage) of Cn1c(C(F)(F)F)cc(=O)n(-c2c(F)cc(Cl)c(Oc3ncccc3[N+](=O)[O-])c2NC(=O)c2ccc3ccccc3c2)c1=O [2-199] , test system: upland rice (Oryza sp., var. Tebonnet, RICE).
(A) 80

----------
Tested on: green foxtail (Setaria viridis, SETVI)
Assay: Pre-emerge test, greenhouse herbicide activity screening
Format: in vivo
Conditions: 63 g ai/ha; pre-emerge; rated 14 days after application; 0 = no damage, 100 = complete death
Reported Pre-emerge Herbicidal Activity SETVI (phytotoxicity rating, scale 0-100) values are given for each entry in this list.
Write the number on its own, no unit after it.

CCOC(=O)C(C)Oc1c(Cl)cc(F)c(-n2c(=O)cc(C(F)(F)F)n(C)c2=O)c1N (stereo not shown) [Compound 1-60] : 95
COc1c(Cl)cc(F)c(-n2c(=O)cc(C(F)(F)F)n(C)c2=O)c1NC(=O)C(F)(F)F [2-10] : 40
Cn1c(C(F)(F)F)cc(=O)n(-c2c(N)cc(OC(F)F)cc2F)c1=O [Compound 1-51] : 30

Turning now to a further molecule:
(Q) Which Pre-emerge Herbicidal Activity SETVI (phytotoxicity rating, scale 0-100) reading was recorded for the molecule COc1c(Cl)cc(F)c(-n2c(=O)cc(C(F)(F)F)n(C)c2=O)c1N=CN(C)C [Compound 1-31] ?
(A) 50

----------
Test system: johnsongrass (Sorghum halepense, SORHA)
Assay: Pre-emerge test, greenhouse herbicide activity screening
Type: in vivo
Settings: pre-emerge, 63 g ai/ha, 14 days after application, scale 0-100
Consider the cut-off 20. If the recorded phytotoxicity rating SORHA is strictly smaller, the label is 1 (yes); if not, the label is 0 (no).

COc1c(Cl)cc(F)c(-n2c(=O)cc(C(F)(F)F)n(C)c2=O)c1NC(=O)COc1ccc(Cl)cc1Cl [2-154] : 0 (no)

(Q) # strict comparison: is reported phytotoxicity rating SORHA < 20? input = COc1c(Cl)cc(F)c(-n2c(=O)cc(C(F)(F)F)n(C)c2=O)c1NC(=O)c1c(C)cccc1C [2-124]
(A) 1 (yes)

(Q) # strict comparison: is reported phytotoxicity rating SORHA < 20? input = COc1ccc(-n2c(=O)cc(C(F)(F)F)n(C)c2=O)c(NC(=O)c2ccc3ccccc3c2)c1 [2-143]
(A) 0 (no)

(Q) phytotoxicity rating SORHA strictly < 20 for this compound? CCOC(=O)C(C)Oc1ccc(-n2c(=O)cc(C(F)(F)F)n(C)c2=O)c(NC(=O)c2ccc3ccccc3c2)c1 (stereo not shown) [2-146]
(A) 1 (yes)

----------
System: field corn (Zea mays L., var. Dekalb 535, CORN)
Experiment: Pre-emerge test, crop safety
Type: in vivo
Conditions: 250 g ai/ha; rating scale 0-100, 14 days after application
Protocol: A standard greenhouse herbicide activity screening system was used to evaluate the herbicidal efficacy and crop safety of these test compounds. […] At 14 days after application of the test materials, phytotoxicity ratings were recorded. […]
Criterion: Pre-emerge phytotoxicity rating, crop damage CORN strictly under 5. Met: T. Not met: F.

# example entries with known answers
COc1c(Cl)cc(F)c(-n2c(=O)cc(C(F)(F)F)n(C)c2=O)c1CC(C)(Cl)C(=O)OC(C(F)(F)F)C(F)(F)F (centres unmarked) [14-46] : T
COc1c(Cl)cc(F)c(-n2c(=O)cc(C(F)(F)F)n(C)c2=O)c1CC(C)(Cl)C(=O)OCc1ccccc1 (centres unmarked) [14-41] : T
C=CCOC(=O)C(C)(Cl)Cc1c(OC)c(Cl)cc(F)c1-n1c(=O)cc(C(F)(F)F)n(C)c1=O (centres unmarked) [14-43] : F
CCCCCCOC(=O)C(C)(Cl)Cc1c(OC)c(Cl)cc(F)c1-n1c(=O)cc(C(F)(F)F)n(C)c1=O (centres unmarked) [14-38] : T
CCOC(=O)C(C)(Cl)Cc1c(OC)c(Cl)cc(F)c1-n1c(=O)cc(C(F)(F)F)n(C)c1=O (centres unmarked) [14-34] : F
COCCOC(=O)C(C)(Cl)Cc1c(OC)c(Cl)cc(F)c1-n1c(=O)cc(C(F)(F)F)n(C)c1=O (centres unmarked) [14-47] : T
CCCCOC(=O)C(Cl)Cc1c(OC)c(Cl)cc(F)c1-n1c(=O)cc(C(F)(F)F)n(C)c1=O (single isomer, unassigned) [14-8] : T
COc1c(Cl)cc(F)c(N2C(=O)C3CCCCN3C2=S)c1NC(=O)c1ccc2ccccc2c1 (centres unmarked) [12-5] : T
COc1c(Cl)cc(F)c(-n2c(=O)cc(C(F)(F)F)n(C)c2=O)c1CC(Cl)C(=O)OCC(C)C (single isomer, unassigned) [14-15] : T
COc1c(Cl)cc(F)c(-n2c(=O)cc(C(F)(F)F)n(C)c2=O)c1CC(Cl)C(=O)OCC(F)(F)C(F)(F)C(F)(F)F (single isomer, unassigned) [14-23] : T

(Q) Please check: Pre-emerge phytotoxicity rating, crop damage CORN for CCOC(=O)CCc1c(OC)c(Cl)cc(F)c1-n1c(=O)cc(C(F)(F)F)n(C)c1=O [14-1] , strictly under 5 or not?
(A) F

(Q) Given the entry CCCCCOC(=O)C(Cl)Cc1c(OC)c(Cl)cc(F)c1-n1c(=O)cc(C(F)(F)F)n(C)c1=O (single isomer, unassigned) [14-11] , would its reported Pre-emerge phytotoxicity rating, crop damage CORN be below 5?
(A) T

(Q) Report whether reported Pre-emerge phytotoxicity rating, crop damage CORN is lower than 5 (strictly) for C#CCOC(=O)C(Cl)Cc1c(OC)c(Cl)cc(F)c1-n1c(=O)cc(C(F)(F)F)n(C)c1=O (single isomer, unassigned) [14-20]
(A) F

Source of measurements: patent US6355799B1
